System: rodent lifetime carcinogenesis bioassay, tumor incidence TD50
procedure.text: carcinogenic potency in animals, long-term in vivo studies, CPDB compilation (AID 1745844)
condition.label: mouse; strain CF-1; males; in feed; site: liver; lesion: carcinoma; dosed 78 weeks; study length 78 weeks
Calls of active or inactive are those of the source. No rule for the calls is given here.
endpoint.label: TD50

- C=CCOc1ccccc1OCC(O)CNC(C)C (stereo unspecified): 2620 mg/kg/day (inactive)

###

System: rodent lifetime carcinogenesis bioassay, tumor incidence TD50
procedure.text: carcinogenic potency in animals, long-term in vivo studies, CPDB compilation (AID 1745844)
condition.label: rat; strain Fischer 344; females; in feed; site: liver; lesion: hepatocellular carcinoma + neoplastic nodule; dosed 13 weeks; study length 13 weeks
endpoint.label: TD50

* O=C([O-])c1cc(N=Nc2ccc(-c3ccc(N=Nc4c(O)ccc(N=Nc5cc(S(=O)(=O)[O-])ccc5[O-])c4[O-])cc3)cc2)ccc1O.[Cu+2].[Na+].[Na+] | 2.07 mg/kg/day
* Nc1cc(S(=O)(=O)O)cc2cc(S(=O)(=O)O)c(N=Nc3ccc(-c4ccc(N=Nc5c(S(=O)(=O)O)cc6cc(S(=O)(=O)O)cc(N)c6c5O)cc4)cc3)c(O)c12 | 3.21 mg/kg/day

###

Tested on: rodent lifetime carcinogenesis bioassay, tumor incidence TD50
procedure.text: carcinogenic potency in animals, long-term in vivo studies, CPDB compilation (AID 1745844)
condition.label: mouse; strain ddNi; females; in feed; site: liver; lesion: liver-cell adenoma; dosed 160 weeks; study length 160 weeks
endpoint.label: TD50

* Cc1cc(O)c2c(c1O)C(=O)C13C(=C2O)C(=O)C2C(O)C1C1C(O)C3C(=O)C3=C(O)c4c(O)cc(C)c(O)c4C(=O)C321 (stereo unspecified) | 122 mg/kg/day

###

System: rodent lifetime carcinogenesis bioassay, tumor incidence TD50
procedure.text: carcinogenic potency in animals, long-term in vivo studies, CPDB compilation (AID 1745844)
condition.label: rat; strain Fischer 344; males; in feed; site: Zymbal's gland; lesion: adenoma + carcinoma + carcinoma, bilateral; dosed 12 weeks; study length 103 weeks
endpoint.label: TD50

• OCC(CO)(CBr)CBr = 138 mg/kg/day

###

Test system: rodent lifetime carcinogenesis bioassay, tumor incidence TD50
procedure.text: carcinogenic potency in animals, long-term in vivo studies, CPDB compilation (AID 1745844)
condition.label: mouse; strain B6C3F1; females; in feed; site: liver; lesion: hepatocellular adenoma; dosed 78 weeks; study length 78 weeks
Active and inactive are the calls of the source. How the calls were made is not given here.
Classes used: true (1) (active), false (0) (inactive)

• COC(=O)C1=C(C)NC(C)=C(C(=O)OCCc2ccc(N3CCN(C(c4ccccc4)c4ccccc4)CC3)cc2)C1c1cccc([N+](=O)[O-])c1 (stereo not given) = false (0)
• CN1CCCC1=O = true (1)
• CN(C)c1ccc(C(=C2C=CC(=[N+](C)C)C=C2)c2ccc(N(C)C)cc2)cc1 = true (1)
• O=C(O)c1cc(Oc2ccc(C(F)(F)F)cc2Cl)ccc1[N+](=O)[O-] = true (1)

###

System: rodent lifetime carcinogenesis bioassay, tumor incidence TD50
procedure.text: carcinogenic potency in animals, long-term in vivo studies, CPDB compilation (AID 1745844)
condition.label: rat; strain Fischer 344; males; by gavage; site: nasal mucosa; lesion: one or several types; types not named; dosed 30 weeks; study length 55 weeks
endpoint.label: TD50

• CCN(C)N=O = 0.201 mg/kg/day

###

System: rodent lifetime carcinogenesis bioassay, tumor incidence TD50
procedure.text: carcinogenic potency in animals, long-term in vivo studies, CPDB compilation (AID 1745844)
condition.label: mouse; strain B6C3F1; males; inhaled; site: forestomach; lesion: squamous-cell papilloma; dosed 52 weeks; study length 104 weeks
endpoint.label: TD50 (mg/kg/day)

- C=CC=C: 77.7

###

System: rodent lifetime carcinogenesis bioassay, tumor incidence TD50
procedure.text: carcinogenic potency in animals, long-term in vivo studies, CPDB compilation (AID 1745844)
condition.label: mouse; strain B6C3F1; males; in drinking water; site: liver; lesion: hepatocellular adenoma; dosed 104 weeks; study length 104 weeks
The source made the active and inactive calls. How the calls were made is not given here.
endpoint.label: TD50

- ClCCl: 2900 mg/kg/day (inactive)

###

System: rodent lifetime carcinogenesis bioassay, tumor incidence TD50
procedure.text: carcinogenic potency in animals, long-term in vivo studies, CPDB compilation (AID 1745844)
condition.label: rat; strain Wistar albino; males; i.p.; site: pancreas; lesion: adenocarcinoma; dosed 26 weeks; study length 52 weeks
endpoint.label: TD50

- CN(N=O)C(=O)NCCC[C@H](N)C(=O)O: 11 mg/kg/day

###

Tested on: rodent lifetime carcinogenesis bioassay, tumor incidence TD50
procedure.text: carcinogenic potency in animals, long-term in vivo studies, CPDB compilation (AID 1745844)
condition.label: rat; strain Fischer 344; females; in drinking water; site: kidney; lesion: one or several types; types not named; dosed 55 weeks; study length 105 weeks
endpoint.label: TD50

• O=NN(CCO)CCO = 327 mg/kg/day

###

Tested on: rodent lifetime carcinogenesis bioassay, tumor incidence TD50
procedure.text: carcinogenic potency in animals, long-term in vivo studies, CPDB compilation (AID 1745844)
condition.label: rat; strain Sprague-Dawley; males; i.p.; site: bone + vertebra; lesion: osteosarcoma; dosed 51 weeks; study length 80 weeks
endpoint.label: TD50

- COc1cc2c(c3c1c(=O)c1ccccc1n3C)C=CC(C)(C)O2: 1.03 mg/kg/day

###

Tested on: rodent lifetime carcinogenesis bioassay, tumor incidence TD50
procedure.text: carcinogenic potency in animals, long-term in vivo studies, CPDB compilation (AID 1745844)
condition.label: rat; strain Charles River CD (Sprague-Dawley); females; in feed; site: mammary gland; lesion: fibroadenoma; dosed 52 weeks; study length 52 weeks
endpoint.label: TD50 (mg/kg/day)

• CCNc1nc(Cl)nc(NC(C)(C)C#N)n1 = 3.03

###

Tested on: rodent lifetime carcinogenesis bioassay, tumor incidence TD50
procedure.text: carcinogenic potency in animals, long-term in vivo studies, CPDB compilation (AID 1745844)
condition.label: mouse; strain Swiss albino; males; in drinking water; site: aorta and large arteries; lesion: several types; types named in the paper; dosed 120 weeks; study length 120 weeks
endpoint.label: TD50

- NNc1ccc(C(=O)O)cc1: 380 mg/kg/day

###

System: rodent lifetime carcinogenesis bioassay, tumor incidence TD50
procedure.text: carcinogenic potency in animals, long-term in vivo studies, CPDB compilation (AID 1745844)
condition.label: mouse; strain C57BL/6JfC3Hf/Nctr x BALB/cStCrlfC3Hf/Nctr; females; in drinking water; site: Harderian gland; lesion: adenoma; dosed 143 weeks; study length 143 weeks
endpoint.label: TD50

• Nc1ccc(-c2ccc(N)cc2)cc1 = 51.7 mg/kg/day

###

Tested on: rodent lifetime carcinogenesis bioassay, tumor incidence TD50
procedure.text: carcinogenic potency in animals, long-term in vivo studies, CPDB compilation (AID 1745844)
condition.label: mouse; strain Charles River CD1; females; in feed; site: forestomach; lesion: squamous-cell carcinoma; dosed 31 weeks; study length 75 weeks
endpoint.label: TD50

* Nc1nc(/C=C/c2ccc([N+](=O)[O-])o2)no1 | 105 mg/kg/day

###

Tested on: rodent lifetime carcinogenesis bioassay, tumor incidence TD50
procedure.text: carcinogenic potency in animals, long-term in vivo studies, CPDB compilation (AID 1745844)
condition.label: rat; strain Charles River CD (Sprague-Dawley); males; in feed; site: kidney; lesion: tubule carcinoma; dosed 104 weeks; study length 104 weeks
endpoint.label: TD50

* O=C1C2CC=CCC2C(=O)N1SC(Cl)(Cl)Cl (stereo unspecified) | 11500 mg/kg/day

###

Tested on: rodent lifetime carcinogenesis bioassay, tumor incidence TD50
procedure.text: carcinogenic potency in animals, long-term in vivo studies, CPDB compilation (AID 1745844)
condition.label: rat; strain Sprague-Dawley; females; in feed; site: nasal cavity; lesion: transitional-cell carcinoma; dosed 78 weeks; study length 104 weeks
endpoint.label: TD50

* CCOc1ccc(NC(C)=O)cc1 | 23800 mg/kg/day

###

Test system: rodent lifetime carcinogenesis bioassay, tumor incidence TD50
procedure.text: carcinogenic potency in animals, long-term in vivo studies, CPDB compilation (AID 1745844)
condition.label: rat; strain Fischer 344; males; in feed; site: any site (literature study); lesion: several types; types named in the paper; dosed 39 weeks; study length 66 weeks
endpoint.label: TD50 (mg/kg/day)

- Nc1c(Br)cc(Br)c2c1C(=O)c1ccccc1C2=O: 123

###

System: rodent lifetime carcinogenesis bioassay, tumor incidence TD50
procedure.text: carcinogenic potency in animals, long-term in vivo studies, CPDB compilation (AID 1745844)
condition.label: rat; strain Fischer 344; males; in feed; site: forestomach; lesion: squamous-cell papilloma; dosed 104 weeks; study length 104 weeks
endpoint.label: TD50

* O=[N+]([O-])c1cccc2cccnc12 | 10.1 mg/kg/day

###

Test system: rodent lifetime carcinogenesis bioassay, tumor incidence TD50
procedure.text: carcinogenic potency in animals, long-term in vivo studies, CPDB compilation (AID 1745844)
condition.label: mouse; strain B6C3F1; males; in feed; site: kidney; lesion: adenoma; dosed 96 weeks; study length 96 weeks
endpoint.label: TD50

- Oc1ccc(O)cc1: 5320 mg/kg/day
